Would you kindly list HK-2 rel to PMB for each of these compounds?
Tested on: HK-2 cells
Assay: In vitro renal cell toxicity assay (HK-2)
Type: cell-based
Where a SMILES comes first, the peptide text is derived from it. Bridges are numbered along the chain shown (N, C = ends). [ ]: non-standard residue; d: D form. The star is where a group is joined. X4 = NC[C@@H](CC(=O)*)c1ccc(Cl)cc1; X5 = NC[C@H](CC(=O)*)c1ccc(Cl)cc1; Dab = NCC[C@H](N)C(=O)O; Dap = NC[C@H](N)C(=O)O
One number for each entry.

CC(C)C[C@@H]1NC(=O)[C@@H](Cc2ccccc2)NC(=O)[C@H](CCN)NC(=O)[C@@H](NC(=O)[C@H](CN)NC(=O)[C@@H](NC(=O)C[C@@H](CN)c2ccc(Cl)cc2)[C@@H](C)O)CCNC(=O)[C@H]([C@@H](C)O)NC(=O)[C@H](CCN)NC(=O)[C@H](CCN)NC1=O [Example 2] (X5-T[Dap][Dab][Dab][dF]L[Dab][Dab]T; lactam 3-C); 7.2

Continue with the compound presented below.
In: # query: HK-2 rel to PMB of entry CC(C)C[C@@H]1NC(=O)[C@@H](Cc2ccccc2)NC(=O)[C@H](CCN)NC(=O)[C@@H](NC(=O)[C@H](CN)NC(=O)[C@@H](NC(=O)C[C@H](CN)c2ccc(Cl)cc2)[C@@H](C)O)CCNC(=O)[C@H]([C@@H](C)O)NC(=O)[C@H](CCN)NC(=O)[C@H](CCN)NC1=O [Example 1] (X4-T[Dap][Dab][Dab][dF]L[Dab][Dab]T; lactam 3-C)
Out: 8.8

###

Please go through the items and note down their HK-2 rel to PMB.
System: HK-2 cells
Assay: In vitro renal cell toxicity assay (HK-2)
Assay type: cell-based
Conditions: IC50 relative to PMB in the same experiment, 24 h
*1 amine or outer side, *2 acyl side, *3 side chain or, on linkers, in order; H or OH if unused. Where a SMILES comes first, the peptide text is derived from it. Bridges are numbered along the chain shown (N, C = ends). [ ]: non-standard residue; d: D form. The star is where a group is joined. GABA(3S-Bn) = O=C(C[C@@H](CN[*:1])Cc1ccccc1)[*:2]; GABA(3R-Bn) = O=C(C[C@H](CN[*:1])Cc1ccccc1)[*:2]; X3 = CC(C)c1cccc([C@@H](CN)CC(=O)*)c1; X9 = CC(C)c1cccc([C@H](CN)CC(=O)*)c1; Dab = NCC[C@H](N)C(=O)O; Abu = CC[C@H](N)C(=O)O; Dap = NC[C@H](N)C(=O)O
One number for each entry.

CC(C)C[C@@H]1NC(=O)[C@@H](Cc2ccccc2)NC(=O)[C@H](CCN)NC(=O)[C@@H](NC(=O)[C@H](CN)NC(=O)[C@@H](NC(=O)C[C@H](CN)Cc2ccccc2)[C@@H](C)O)CCNC(=O)[C@H]([C@@H](C)O)NC(=O)[C@H](CCN)NC(=O)[C@H](CCN)NC1=O [Example 9] ({GABA(3R-Bn)}-T[Dap][Dab][Dab][dF]L[Dab][Dab]T; lactam 3-C); 12.0
CC[C@@H]1NC(=O)[C@@H](Cc2ccccc2)NC(=O)[C@H](CCN)NC(=O)[C@@H](NC(=O)[C@H](CN)NC(=O)[C@@H](NC(=O)C[C@@H](CN)c2cccc(C(C)C)c2)[C@@H](C)O)CCNC(=O)[C@H]([C@@H](C)O)NC(=O)[C@H](CCN)NC(=O)[C@H](CCN)NC1=O [Example 18] (X9-T[Dap][Dab][Dab][dF][Abu][Dab][Dab]T; lactam 3-C); 32.8
CC(C)C[C@@H]1NC(=O)[C@@H](Cc2ccccc2)NC(=O)[C@H](CCN)NC(=O)[C@@H](NC(=O)[C@H](CN)NC(=O)[C@@H](NC(=O)C[C@@H](CN)Cc2ccccc2)[C@@H](C)O)CCNC(=O)[C@H]([C@@H](C)O)NC(=O)[C@H](CCN)NC(=O)[C@H](CCN)NC1=O [Example 10] ({GABA(3S-Bn)}-T[Dap][Dab][Dab][dF]L[Dab][Dab]T; lactam 3-C); 8

In: Which HK-2 rel to PMB is listed for CC[C@@H]1NC(=O)[C@@H](Cc2ccccc2)NC(=O)[C@H](CCN)NC(=O)[C@@H](NC(=O)[C@H](CN)NC(=O)[C@@H](NC(=O)C[C@H](CN)c2cccc(C(C)C)c2)[C@@H](C)O)CCNC(=O)[C@H]([C@@H](C)O)NC(=O)[C@H](CCN)NC(=O)[C@H](CCN)NC1=O [Example 17] (X3-T[Dap][Dab][Dab][dF][Abu][Dab][Dab]T; lactam 3-C) ?
Out: 29.0
